The measurements presented in this section are drawn from the supplement of paper PMC10011410.

system: AmpC beta-lactamase (E. coli); experiment: AmpC inhibition relative to DMSO; higher = more inhibition; conditions: 11 µM; detergent: no detergent
Please use TRUE whenever AmpC inhibition is not below 4%, and FALSE whenever it is.

mol_smiles=O=C1C(Cl)=C(NCCN2CCOCC2)C(=O)c2ncccc21 category_label=FALSE
mol_smiles=COC1=CC=C(S(=O)(O/N=C2C=C(C(C(C)=C\2)=O)C)=O)C=C1 category_label=FALSE
mol_smiles=CC(C)([C@](C1=O)(C2=O)C/C=C(C)\C)[C@@H](C[C@]31C[C@@H](C(C)(OC3=C2C(C4=CC(O)=C(C=C4)O)=O)C)C/C=C(C)\C)C/C=C(C)\C category_label=TRUE
mol_smiles=COc1ccc(/C(Cl)=C(\C=O)c2ccc(OC)cc2)cc1 category_label=FALSE
mol_smiles=c1cc(SSc2ccns2)sn1 category_label=TRUE
